Test system: RXF 393 renal
Assay: NCI tumour cell line growth inhibition, 48 h; in the data active = GI50 below about 0.43 µM; inactive = the rest
Form entry, call: pick from t (active), f (inactive)

Previously resolved entries follow.
[
  {
    "compound": "COc1ccc2ncnc(Nc3ccc(OCc4ccccc4)cc3)c2c1",
    "classification": "f"
  },
  {
    "compound": "CC(=O)N[C@@H](Cc1ccc(OP(=O)(O)O)cc1)C(=O)N[C@H]1CCC(=O)N2CCC[C@@H](C(=O)Nc3cccc4ccccc34)N2C1=O",
    "classification": "f"
  },
  {
    "compound": "O=[N+]([O-])c1cc([N+](=O)[O-])c(C(F)(F)F)cc1NN=C(c1ccc(O)cc1)c1ccc(O)cc1",
    "classification": "f"
  },
  {
    "compound": "COc1ccc(CN2C(=O)C(Cl)=C(Nc3cccc(C(F)(F)F)c3)C2=O)cc1",
    "classification": "t"
  }
]

How did this test come out for CCOC(=O)n1cc(C2=C(c3ccc(OC)c(OC)c3)COC2=O)c2ccccc21 ?
t

Please indicate how the test categorized CCCCCCCCCCSC(=N)N (tested in a mixture with another compound) .
f

Any idea what this test logged for COc1cc(-c2nn(-c3cccc(NC(=O)c4ccccc4)c3)cc2-c2ccncc2)ccc1Cl ?
f

What call does the record list for OC(c1cc(C(F)(F)F)nc2c(C(F)(F)F)cccc12)C1CCCCN1 (centres undefined) ?
f

How did this test come out for Fc1cc(-c2nnc3n2N=C(c2ccc(Cl)cc2)CS3)c(Cl)cc1Cl ?
f

* * *

Tested on: BT-549 breast
Experiment: NCI tumour cell line growth inhibition, 48 h; in the data active = GI50 below about 0.43 µM; inactive = the rest
Tick one outcome: active, inactive

Check out these entries, answers already filled in.
[
  {
    "compound": "CC[C@@H](c1ccc(O)c(O)c1)[C@@H](CC)c1ccc(O)c(O)c1",
    "classification": "inactive"
  },
  {
    "compound": "O=C1c2c(F)c(F)c(F)c(F)c2C(=O)N1c1ccc(F)cc1F",
    "classification": "inactive"
  },
  {
    "compound": "CCCCCCCCCCSC(=N)N (tested in a mixture with another compound)",
    "classification": "inactive"
  },
  {
    "compound": "c1ccc(-c2n(Cc3ccc4ccccc4n3)cc[n+]2Cc2ccc3ccccc3c2)cc1",
    "classification": "inactive"
  },
  {
    "compound": "O=C1OCC2=C1C(c1cccc(Br)c1)c1cc3c(cc1N2CCO)OCCO3 (stereo not given)",
    "classification": "active"
  }
]

Each compound tested received a call. Report the one for NC(=S)N/N=C\c1nccc2c(C(F)(F)F)cccc12 .
active

Identify the outcome logged in this assay for the compound shown: C=C1C[C@H](O)[C@H](Br)C(C)(C)[C@@]12CCC(C)=C(Cl)C2
active

For this compound, state the assay outcome: Fc1cc(-c2nnc3n2N=C(c2ccc(Cl)cc2)CS3)c(Cl)cc1Cl
inactive

// param item: Cn1cc(-c2cc3c(N4CCN(c5ncc([C@@](C)(N)c6ccc(F)cc6)cn5)CC4)ncnn3c2)cn1 ; yields the recorded call
inactive

Please let me know the test result on file for Nc1nc2[nH]cc(CCc3ccc(C(=O)N[C@@H](CCC(=O)O)C(=O)O)cc3)c2c(=O)[nH]1 .
inactive

Could you check what this test reported for CN1CCN(c2ccc(Nc3ncc(Cl)c(NC[C@@H]4CCCO4)n3)cc2)CC1 ?
inactive

Fill in: this test's call for COc1cc(-c2nn(-c3cccc(NC(=O)c4ccccc4)c3)cc2-c2ccncc2)ccc1Cl is ___
inactive

Please indicate how the test categorized CC1(C)[C@@H](NOCCCN)CC[C@]2(C)[C@H]3C(=O)C=C4[C@@H]5C[C@](C)(C(=O)O)CC[C@]5(C)CC[C@@]4(C)[C@]3(C)CC[C@@H]12 .
inactive

# outcome recorded in this test, key = Cc1cc2c(cc1C)[n+](=O)c(C(=O)c1ccccc1)c(C(F)F)n2[O-]
inactive

Test call for this compound, please: C#Cc1cccc(Nc2nc3cc([N+](=O)[O-])ccc3nc2Nc2ccc(O)cc2)c1
inactive
